Reported OD450 values for the following binders.
Biological target: BSA (UniProt P02769)
Sequence (P02769 25-607 limits assumed): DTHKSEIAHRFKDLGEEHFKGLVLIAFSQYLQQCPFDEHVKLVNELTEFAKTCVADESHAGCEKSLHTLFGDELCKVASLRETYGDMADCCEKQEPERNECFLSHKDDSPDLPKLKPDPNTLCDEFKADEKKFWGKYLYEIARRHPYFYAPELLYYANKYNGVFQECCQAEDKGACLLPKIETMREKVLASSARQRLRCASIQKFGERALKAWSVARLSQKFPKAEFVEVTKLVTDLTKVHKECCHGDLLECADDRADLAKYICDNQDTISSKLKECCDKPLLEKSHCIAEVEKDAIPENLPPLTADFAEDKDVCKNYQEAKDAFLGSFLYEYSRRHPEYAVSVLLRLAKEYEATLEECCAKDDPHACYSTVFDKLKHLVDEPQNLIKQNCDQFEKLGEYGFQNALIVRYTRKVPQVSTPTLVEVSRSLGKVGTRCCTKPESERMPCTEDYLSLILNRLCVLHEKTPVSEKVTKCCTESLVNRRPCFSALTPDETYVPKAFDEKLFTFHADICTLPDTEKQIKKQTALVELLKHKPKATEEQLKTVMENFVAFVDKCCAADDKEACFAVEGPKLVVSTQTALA
Experiment: scFv ELISA
MEASURED PARAMETER: OD450 (OD450)

>  <BINDER>
PcOxP_DB01_C09 (scFv, V domains shown, scFv in periplasmic extract) VH: EVQLLESGGGLVQPGGSLRLSCAASGFTFSDFYMEWVRQAPGKGLEWVAASRNKANDYTTEYADSVKGRFTISRDNSKNTLYLQMNSLRAEDTAVYYCARDYYGSSYWYFDVWGQGTLVTVSS VL: DIVMTQSPDSLAVSLGERATINCTASQSVYSSKNKVHYLAWYQQKPGQPPKLLIYGASNRYIGVPDRFSGSGSGTDFTLTISSLQAEDVAVYYCAQFYSYPLTFGGGTKVEIK

>  <MEASURED PARAMETER>
OD450

>  <OBSERVED RESULT>
0.07

$$$$
>  <BINDER>
PcOxP_DB01_G10 (scFv, V domains shown, scFv in periplasmic extract) VH: EVQLLESGGGLVQPGGSLRLSCAASGFTFSDFYMEWVRQAPGKGLEWVAASRNKNNDYTTEYADSVKGRFTISRDNSKNTLYLQMNSLRAEDTAVYYCARDYYGSSYWYFDVWGQGTLVTVSS VL: DIVMTQSPDSLAVSLGERATINCKASQSLYSSKHKKHYLAWYQQKPGQPPKLLIYGASNRYPGVPDRFSGSGSGTDFTLTISSLQAEDVAVYYCAQFYRYPLTFGGGTKVEIK

>  <MEASURED PARAMETER>
OD450

>  <OBSERVED RESULT>
0.1

$$$$
>  <BINDER>
PcOxP_DB04_F01 (scFv, V domains shown, scFv in periplasmic extract) VH: EVQLLESGGGLVQPGGSLRLSCAASGFTFSPFYMEWVRQAPGKGLEWVAASRNKANDYTTEYADSVKGRFTISRDNSKNTLYLQMNSLRAEDTAVYYCARDYYGSSYWYFDVWGQGTLVTVSS VL: DIVMTQSPDSLAVSLGERATINCTASESLYSSKHKVHYLAWYQQKPGQPPKLLIYGASNRYIGVPDRFSGSGSGTDFTLTISSLQAEDVAVYYCAQFYEYPLTFGGGTKVEIK

>  <MEASURED PARAMETER>
OD450

>  <OBSERVED RESULT>
0.09

$$$$

The origin of these recorded values is patent US20250320312A1.
